Recorded log10(Ki) by entry
target: vanilloid receptor-1 (VR1) (Rattus norvegicus, UniProt O35433); construct: expressed in transfected cells; host or cells: Chinese Hamster Ovary cells (CHO, ATCC CCL-61), Tet-off inducible expression; test: [3H]RTX competition binding assay, VR1-expressing CHO cells; conditions: displacement of bound [3H]RTX; mean±SEM, 3 experiments
Sequence (O35433 whole entry): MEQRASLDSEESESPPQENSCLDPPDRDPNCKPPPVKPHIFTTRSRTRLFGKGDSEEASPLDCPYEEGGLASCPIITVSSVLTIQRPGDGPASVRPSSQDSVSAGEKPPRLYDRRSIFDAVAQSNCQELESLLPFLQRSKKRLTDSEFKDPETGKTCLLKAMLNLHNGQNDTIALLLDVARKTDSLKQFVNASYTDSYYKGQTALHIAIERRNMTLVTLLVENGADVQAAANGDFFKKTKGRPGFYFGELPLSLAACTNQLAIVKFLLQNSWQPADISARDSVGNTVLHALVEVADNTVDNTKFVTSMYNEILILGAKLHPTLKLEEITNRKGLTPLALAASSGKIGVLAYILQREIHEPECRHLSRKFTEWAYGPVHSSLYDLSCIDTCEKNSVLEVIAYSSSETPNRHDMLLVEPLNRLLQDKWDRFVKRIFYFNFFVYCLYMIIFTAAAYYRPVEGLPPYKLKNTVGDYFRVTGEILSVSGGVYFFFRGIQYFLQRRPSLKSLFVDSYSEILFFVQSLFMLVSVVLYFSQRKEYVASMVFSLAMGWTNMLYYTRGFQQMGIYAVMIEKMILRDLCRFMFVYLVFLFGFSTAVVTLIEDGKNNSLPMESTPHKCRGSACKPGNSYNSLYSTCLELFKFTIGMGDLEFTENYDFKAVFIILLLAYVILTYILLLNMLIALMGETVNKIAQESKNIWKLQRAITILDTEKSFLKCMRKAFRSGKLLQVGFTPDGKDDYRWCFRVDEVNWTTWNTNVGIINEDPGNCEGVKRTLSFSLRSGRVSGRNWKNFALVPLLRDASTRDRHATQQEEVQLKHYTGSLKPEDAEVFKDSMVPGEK
OBSERVATION_TYPE: log10(Ki) (log10 of the value in nM)

COMPOUND	log10(Ki)
COc1cc(CNC(=S)N(O)CC(COC(=O)C(C)(C)C)Cc2ccc(C)c(C)c2)ccc1NS(C)(=O)=O (centres unmarked)	2.60
Cc1ccc(CC(CNC(=S)N(O)Cc2ccc(NS(C)(=O)=O)cc2)COC(=O)C(C)(C)C)cc1C (centres unmarked)	2.68
Cc1ccc(CC(COC(=O)C(C)(C)C)CN(O)C(=S)NCc2ccc(NS(C)(=O)=O)c(F)c2)cc1C (centres unmarked)	2.33
CC(C)(C)c1ccc(CN(O)C(=S)NCc2ccc(NS(C)(=O)=O)cc2Cl)cc1	3.36
CC(C)(C)c1ccc(CC(=O)N(O)Cc2ccc(NS(C)(=O)=O)cc2)cc1	3.73
CC(C)(C)C(=O)OCC(Cc1ccc(C(C)(C)C)cc1)CN(O)C(=S)NCc1ccc(NS(C)(=O)=O)c(F)c1 (centres unmarked)	2.61
CC(C)(C)c1ccc(CN(O)C(=S)NCc2ccc(NS(C)(=O)=O)cc2)cc1	3.04
CC(C)(C)c1ccc(CNC(=S)N(O)Cc2ccc(NS(C)(=O)=O)cc2)cc1	3.63
CC(C)(C)c1ccc(CN(O)C(=S)NCc2ccc(NS(C)(=O)=O)c(F)c2)cc1	2.90
CC(C)(C)C(=O)OCC(Cc1ccc(C(C)(C)C)cc1)CN(O)C(=S)NCc1ccc(NS(C)(=O)=O)cc1 (centres unmarked)	2.73
Oc1cc2c(cc1O)CN(C(=S)NCCc1ccc(Cl)cc1)CCC2 [Capsazepine, reference compound]	3.13
CC(C)(C)c1ccc(CN(O)C(=S)NCc2ccc(NS(C)(=O)=O)c(Cl)c2)cc1	3.12
Cc1ccc(CC(COC(=O)C(C)(C)C)CN(O)C(=S)NCc2ccc(NS(C)(=O)=O)cc2)cc1C (centres unmarked)	3.02
CC(C)(C)c1ccc(CN(O)C(=O)Cc2ccc(NS(C)(=O)=O)cc2)cc1	3.80
Cc1ccc(CC(COC(=O)C(C)(C)C)CN(O)C(=S)NCc2ccc(NS(C)(=O)=O)cc2Cl)cc1C (centres unmarked)	2.34
CC(C)(C)c1ccc(CN(O)C(=S)NCc2ccc(NS(C)(=O)=O)cc2F)cc1	3.28
Cc1ccc(CC(CNC(=S)N(O)Cc2ccc(NS(C)(=O)=O)c(F)c2)COC(=O)C(C)(C)C)cc1C (centres unmarked)	2.74

----------
Target: VR1 (Rattus norvegicus)
Construct: expressed in transfected cells; host or cells: Chinese Hamster Ovary cells (CHO, ATCC CCL-61), Tet-off inducible expression
Test: 45Ca influx test in CHO cells expressing VR1, agonistic activity
Type: cell-based
Details: 45Ca uptake
Description: The ^45Ca Influx test by using CHO cells expressing VR1 was performed by the procedure described in the literature (Lee, J. W., Bioorganic & Medicinal Chemistry, pp 1713-1720, 2001). […] In radioactive ^45Ca uptake experiment, The cells were incubated in […] of DMEM medium (Dulbecco's modified Eagles medium: Gibco-BRL, 31600-083) containing free of serum and 1.8 mM CaCl2 for 10 minutes at 37*C. […] The radioactivity was determined by scintillation counter. […]

COMPOUND	EC50 (nM) (VR1/CHO)
CC(C)(C)C(=O)OCC(Cc1ccc(C(C)(C)C)cc1)CN(O)C(=S)NCc1ccc(NS(C)(=O)=O)c(F)c1 (stereo not shown)	Weak
Cc1ccc(CC(CNC(=S)N(O)Cc2ccc(NS(C)(=O)=O)c(F)c2)COC(=O)C(C)(C)C)cc1C (stereo not shown)	Weak
CC(C)(C)C(=O)OCC(Cc1ccc(C(C)(C)C)cc1)CN(O)C(=S)NCc1ccc(NS(C)(=O)=O)cc1 (stereo not shown)	weak
Cc1ccc(CC(CNC(=S)N(O)Cc2ccc(NS(C)(=O)=O)cc2)COC(=O)C(C)(C)C)cc1C (stereo not shown)	Weak
